System: K4 kissing-loop RNA reporter;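 also: bound reporter read as fluorescence of individual clusters on recovered sequencing chips by microscopy, with normalized cluster intensities fitted with a binding model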
Experiment: apparent KD of K4 kissing-loop reporter; higher = weaker reporter binding
Settings: Eterna round: R107; input ligand: tryptophan 2.4 mM
# apparent KD of K4 kissing-loop reporter listing for each entry below

Macromolecule sequence	Units	apparent KD of K4 kissing-loop reporter
GCUACCUAGGCAGGAUAUAGACAUUGAGUGAUGUUCGAUGAUUAUCCAUAUUCCCGUCACAUAUGACUAGAAGGGCCUAGGUAGC	nM	211
GGAAUAACCUGGGAUACCAGUCGGAGGACUAGGGAUCGGAGUGAUGUUCUGGGAUGUUUCGGCCCUUGGCAGCUCUGGUUUUCCG [#2 Exclusion - Theophylline B Attempt #1 (HarryS)]	nM	443
UUGAGCCUGACGGAAGUCAGGCUCUGCGAGCGAGGACCGGUACGGCCGCCACUCGGUGCAGUGAUGUUGCAUGGCCGCAAGGCCG [#2 Exclusion - Tryptophan A Attempt #16 (HarryS)]	nM	420
CUCGAGUGAUGUUCGAUUAUUUAUACAGAUACCAGUGAAUUUUAACACCCUUGGCAGCUGGUUGUAUCAUUGUUUUUUACAAAAG [JR_ExcTheophyA_Sub007]	nM	100
GGAGGGAUCUCGGCCGCCACUCAUAAGAAAUGGGCCUCAGAAAUAUAGUGAUGUUAUGUAAAGAAGAGGACCGGGAGAAAGAAGG [ExTryptoB.Da]	nM	242
UGUCAUUGGUCGGCCGCCACUUCAAGGUCAAAGACCAAAGAGUGAUGUUCUAAGACGAAAGUCAGAAGGACCGGGACCGAUGACU [TrypBS 10 #SwitchBubble #K4Middle]	nM	1220

###

Tested on: MS2 coat protein
Assay: apparent KD of MS2 coat protein; designed switch direction (-1 OFF switch, 1 ON switch): -1; higher = weaker reporter binding
Settings: Eterna round: R95; input ligand: none
Hi, to clarify the labels: 1.0 covers apparent KD of MS2 coat protein from 20 nM upward, 0.0 covers anything below 20 nM.

Macromolecule sequence	Tested system	Assigned category
AGUACUAACACGAAAGUGUUAGUACAAUAAGCUUGUGAAACAUGAGGAUCACCCAUGUCCUCAUAGGCUCGUCUUAU [salish99_TOv2_r3_054] (puzzle: Sensor v3, turn-off variant 2)	MS2 coat protein	0.0
AAAGGUGAGUAGGAUAUCCGCGCACGAAUAAAAGGAGAAGGACUUACAUGAGGAUCACCCAUGUAAGGUGGUAA [Ationbi] (puzzle: Exclusion 6)	MS2 coat protein	0.0
AAUAACUGAGGAUAUACUAAAAUAUGAAUAAAAUAAAUAAAACAUGAGGAUCACCCAUGUAGAAGGCAGAAUAA [JMF's Not so obvious solution 8] (puzzle: Exclusion 2)	MS2 coat protein	1.0
GGUCUGCGAGGAUAUACAUGAGGAUCACCCAUGUGAGAGAUACUAGUGAGGUCGAUUGGUAGAAGGCGCGGACG [JL-ex3-2.03 salish99 mod] (puzzle: Exclusion 3)	MS2 coat protein	1.0
CUCCUCGUGGCGCCUAAACACAUGAGGAUCACCCAUGUACAGGCUUUUUGCCGUCUUAUAAUAAAACCGAGGAGGCG [Arce] (puzzle: Sensor v3, turn-off variant 1)	MS2 coat protein	0.0
AUAAAGAAUGUUAGGAUAUUGGUGAAUAGGCUGACUAAGAAGGAACAUGAGGAUCACCCAUGUAACAUGGAAAA [Tiinzaesqu] (puzzle: Brourd's mod of Exclusion 4)	MS2 coat protein	1.0
GUGUAACUACACGGGCUCAACAUGAGGAUCACCCAUGUCAUACACGCAAGCUUUUUGCUUGUCUUAUCUGUCCGUGA [Raenzama] (puzzle: Sensor v3, turn-off variant 1)	MS2 coat protein	0.0
UUUAAUUUUUUUUUUUUACAAGCUUUUUGCUCGUCUUAUACAUGAGGAUCACCCAUGUGGGUAGGAGGUAAAUUAUC [JMF 72] (puzzle: Sensor v3, turn-off variant 2)	MS2 coat protein	1.0
GUGUGCUGAGGAUAUACAUAGGAAUAGAAUAGAAUAGAAUGACAUGAGGAUCACCCAUGUAGAAGGCAGAGUGU [Excluse me!! 13 - Jieux - Exclusion 2] (puzzle: Exclusion 2)	MS2 coat protein	1.0
CUAGAUCUUCGGAUCUAGUACAUGAGGAUCACCCAUGUUACGAGCUGAUUUUCAUACAAGCUUUUUGCUCGUCUUAU [Sensor v3 - Turn-off variant 1 - 29] (puzzle: Sensor v3, turn-off variant 1)	MS2 coat protein	1.0

###

# apparent KD of MS2 coat protein listing for each entry below
System: MS2 coat protein
Test: apparent KD of MS2 coat protein; designed switch direction (-1 OFF switch, 1 ON switch): -1; higher = weaker reporter binding
Conditions: input ligand: none
Measured endpoint: apparent KD of MS2 coat protein

Macromolecule sequence	Observed result
UUUAAACAUGAGGAUCACCCAUGUUAGGAUAUACGAAUGCAGACACACACGGAUGCAAGUAGAAGGAACCAUGC [Design #8] (Eterna round: R97, puzzle: Exclusion 1)	44.1 nM
GGUCAGACGGUAGGAUAUCCAUAUCGAGUGACCCUUUCAUAACAUGAGGAUCACCCAUGUCGGUGGGAGAAGGGCUGUACGGCG [salish99_ExNG02_R04_002] (Eterna round: R96, puzzle: Exclusion NG 2)	35.6 nM
GCCGGUGAUCUAACCCGUAACAUGAGGAUCACCCAUGUAAGCUCGGGUUCUACAGAACCCGAUAUUAGCUCGUCAGU [Eternabot (Original) Solution 3] (Eterna round: R97, puzzle: Sensor, turn-off variant 1)	894 nM

###

System: MS2 coat protein
Assay: apparent KD of MS2 coat protein; designed switch direction (-1 OFF switch, 1 ON switch): -1; higher = weaker reporter binding
Conditions: Eterna round: R95; input ligand: FMN 200 uM
# apparent KD of MS2 coat protein listing for each entry below

Macromolecule sequence	Units	apparent KD of MS2 coat protein
AAGAAACGAGGAUAUACAGUUGAGUGAGGGAGGGUAGUGUUACAUGAGGAUCACCCAUGUAGAAGGCGUGAGAG [JR_Exclu2_Sub090] (puzzle: Exclusion 2)	nM	24.8
UAAAAGAAGGUCAGGAUAUGUAGUGAGCAAUCAGGACAGAAGGGACAUGAGGAUCACCCAUGUAACAGGGUAAA [Eninares] (puzzle: Brourd's mod of Exclusion 4)	nM	104
UAAUGCAAGCAAAGAUUCUACAUGAGGAUCACCCAUGUGCUCGUCUUAUAAAGUACUAUCACGAAAGUGAUAGUACA [Mat - Sensor v3 - turn-off var 1 - Eli Mod - D96] (puzzle: Sensor v3, turn-off variant 1)	nM	25.7
AAGAAACAUGAGGAUCACCCAUGUGAGGAUAUGAUUAAGAAAAGAAAAGAAAGAAGAAUCAGAAGGCACAAAGG [salish99-ex1_r3_042] (puzzle: Exclusion 1)	nM	258
GAAAAGGUAGGAUAUACGAAAAAAGAGGGUAGAAAAAAAACACAUGAGGAUCACCCAUGUAGAAGGACCAAAAG [salish99_ex2_r3_025] (puzzle: Exclusion 2)	nM	60.2

###

System: MS2 coat protein
Assay: apparent KD of MS2 coat protein; designed switch direction (-1 OFF switch, 1 ON switch): -1; higher = weaker reporter binding
Conditions: input ligand: FMN 200 uM

Macromolecule sequence	apparent KD of MS2 coat protein [nM]
GCUAGGCAUGUCAGGAUAUGCUGUACCUUGGUACAGCAGAAGGGACAUGAGGAUCACCCAUGUGCCUACCUAGC [JL-BMX4-4.04] (Eterna round: R97, puzzle: Brourd's mod of Exclusion 4)	173
UUUUGGCAGGCAAUUAUUAACAUGAGGAUCACCCAUGUGCAUCCAAAAUUACUUUUAGAUCAAGCUCGUCUUAUAUA [JR_STOV1_Sub087] (Eterna round: R97, puzzle: Sensor, turn-off variant 1)	29.9
CGAUGUAACACAGGAUAUCAUCGCAACUGACGUUGAGAAGGGUGACAUGAGGAUCACCCAUGUGAUUUCUCAAUAUUAUACAUC [Prohibition 82 - Jieux - Exclusion NG 1] (Eterna round: R96, puzzle: Exclusion NG 1)	715
CAGUACUGAGGAUAUACAUGAGGAUCACCCAUGUGUGUGAGAUUUGGAUGAAAGUUAUGUAGAAGGCGGUGCUG [JR_Ex3_Sub037] (Eterna round: R97, puzzle: Exclusion 3)	68.4
AAAAAAUUGAGAGGAUAUGGUGCCGAAACGGUGCUAGAAGGUUUUAUAAAAAAACAUGAGGAUCACCCAUGUUCAUGUAAAAAA [AK ExNG1-1] (Eterna round: R96, puzzle: Exclusion NG 1)	17.2

###

Test system: MS2 coat protein
Experiment: apparent KD of MS2 coat protein; designed switch direction (-1 OFF switch, 1 ON switch): -1; higher = weaker reporter binding
Conditions: Eterna round: R95; input ligand: FMN 200 uM
# apparent KD of MS2 coat protein listing for each entry below

Macromolecule sequence	apparent KD of MS2 coat protein [nM]
GUAAAGUGAGGAUAUGGUAAAUUAAUUAUUAAUUAAUUAAUCCAGAAGGCACAUGAGGAUCACCCAUGUUAAUG [Mat - Exclusion 4 - D89] (puzzle: Exclusion 4)	50.9
UAUAAGGUAGGAUAUACGAAUAAAUAGGGUAGAAUAAUAACACAUGAGGAUCACCCAUGUAGAAGGACCAAUAG [Mat - Exclusion 2 - Mod of my Tesla design - D27] (puzzle: Exclusion 2)	58.9
CUGGUCCGAGGAUAUAUUAUGUGAUACAUGAGGAUCACCCAUGUUAUAUGAUGGAAAUAAAUAGAAGGCGGACUAG [Mat - Exclusion 5 - JL mod - D67] (puzzle: Exclusion 5)	79
AGUACUAUGCGAGCUGACUUGCGUAGUGCAGCAGGUGUUACAUGAGGAUCACCCAUGUCCUCAUUUGCUCGUCUUAA [Mat - Sensor v3 - Turn-off var 2 - D7] (puzzle: Sensor v3, turn-off variant 2)	267
GUGGUGGGUUUUCCGAGUAACAUGAGGAUCACCCAUGUAGAAGUUGAAGGUAUCAAGCGAAUGGCUCGUCAAAUGUG [JR_SV3TOV1_Sub047] (puzzle: Sensor v3, turn-off variant 1)	42.3
AGUACUGACACGUUGGUGUUAGUACCAUAAGCUUGUGAUACAUGAGGAUCACCCAUGUCCUCAUAAGCUCGUCUUAU [salish99_TOv2_r2_096] (puzzle: Sensor v3, turn-off variant 2)	27.4
AAAAAGCUAGGAUAUACAUGAGGAUCACCCAUGUGAGGGCACCGCGGGCGCGGGACCGGUAGAAGGAGCAAAAA [Exc;s3-III] (puzzle: Exclusion 3)	23.5
UGGUAACAUGAGGAUCACCCAUGUCAGGAUAUCAUGAAGAGGAGAGGAGAGGAGAGGAUGAGAAGGGACUAUAU [Excluse me! 13 - Jieux - Exclusion 1] (puzzle: Exclusion 1)	39
CUCCUCGUGGCGCCUAAACACAUGAGGAUCACCCAUGUACAGGCUUUUUGCCGUCUUAUAAUAAAACCGAGGAGGCG [Arce] (puzzle: Sensor v3, turn-off variant 1)	13.7
CGGUGCUGAGGAUAUACAUGAGGAUCACCCAUGUGUUCCAGCUAGCGUACUGGCGGAUGUAGAAGGCGGUACUG [JL-ex3-3.40 Brourd mod] (puzzle: Exclusion 3)	52.8
AAAUCCGCUGAGGAUAUUAUGACUGAGAGGUCAUGAGAAGGCGGUACAUGAGGAUCACCCAUGUCUAUGGGCAA [Ex-6 Malc#27] (puzzle: Exclusion 6)	377
CUGAGCAGACGGAGAUCCAACAUGAGGAUCACCCAUGUCUCAUAAGCUUUUUGCUCAUCUUAUUGUACCUUGGUGCA [Mat - Sensor v3 - turn-off var 1 - JL Mod - D21] (puzzle: Sensor v3, turn-off variant 1)	426
GUGAUGUAGCACAAUAAGUUUUUUGCCGUCUUAGGUCCAACAUGAGGAUCACCCAUGUACGUCUACAUGCACUUUAA [Veveuslabe] (puzzle: Sensor v3, turn-off variant 2)	66.4
GAUCGUUUAGAGGAUAUCAUGCUAAACAUUACAUGAGAAGGCUAGACAUGAGGAUCACCCAUGUAUGCUCGUGA [Exclusion 6 - 9:a] (puzzle: Exclusion 6)	20.8
UUUAAUUUUUUUUUUUUACAAGCUUUUUGCUCGUCUUAUACAUGAGGAUCACCCAUGUAGAUGGAGGGUAAAUUAUC [JMF 86] (puzzle: Sensor v3, turn-off variant 2)	17.4
AUAAAGAAUGUUAGGAUAUUGGUGAAUAGGCUGACUAAGAAGGAACAUGAGGAUCACCCAUGUAACAUGGAAAA [Tiinzaesqu] (puzzle: Brourd's mod of Exclusion 4)	68.8
GCGAAAGCAAGCAAGUGAAACAUGAGGAUCACCCAUGUCCUCAUUUGCUCGUCUUGUAAGCUAUGCGAAAGCAUAGC [Sensor 3, v1 - 5] (puzzle: Sensor v3, turn-off variant 1)	12.1
